# Tested on: SARS-CoV-2 (USA_WA1/2020)
# protocol description: microbe, parasite or virus in culture
# Assay type: cell-based
# test parameters: Severe acute respiratory syndrome coronavirus 2, Vero C1008, 72 h; read-out: CPE EC50
pEC50: −log10 of the molar value. Where a name gives a salt, the structure may show the parent alone.
Each record here notes measured pEC50.
value type: pEC50

compound: CC(C)(O)CNc1ncc(-c2ccnc(Nc3ccnc(Cl)c3)n2)c(CC2CC2)n1 [VPS34-IN1, reference compound]
value type: pEC50
experimental value: 6.20

compound: CNCc1ccc(-c2cc(-c3nc(-c4ccc(S(=O)(=O)C(C)C)cc4)cnc3N)on2)cc1 [Berzosertib, reference compound]
value type: pEC50
experimental value: 6.15

compound: CCCN(CCC)C(=O)C(CCC(=O)OCCCN1CCN(CCOC(=O)Cc2c(C)n(C(=O)c3ccc(Cl)cc3)c3ccc(OC)cc23)CC1)NC(=O)c1ccccc1 (stereo not shown) [Proglumetacin, reference compound]
value type: pEC50
experimental value: 5.00

compound: CN(C)CC/C=C1/c2ccccc2Sc2ccc(Cl)cc21 [Chlorprothixene, reference compound]
value type: pEC50
experimental value: 5.00

compound: CC(C(O)c1ccccc1)N(C)CCOC(c1ccccc1)c1ccccc1 (stereo not shown) [Difeterol, reference compound]
value type: pEC50
experimental value: 5.00

compound: CCC(CC)COC(=O)[C@H](C)N[P@](=O)(OC[C@H]1O[C@@](C#N)(c2ccc3c(N)ncnn23)[C@H](O)[C@@H]1O)Oc1ccccc1 [Remdesivir, reference compound]
value type: pEC50
experimental value: 5.00

compound: Cc1cccc(/C=N/Nc2cc(N3CCOCC3)nc(OCCc3ccccn3)n2)c1 [Apilimod, reference compound]
value type: pEC50
experimental value: 7.64

compound: CCCN1CCN(c2ccc(C(=O)NC3(C(=O)NCC#N)CCCCC3)cc2)CC1 [Balicatib, reference compound]
value type: pEC50
experimental value: 5.70

compound: CCCCCCC(C)(C)c1cc(O)c2c(c1)OC(C)(C)[C@H]1CC=C(CO)C[C@H]21 [Dexanabinol, reference compound]
value type: pEC50
experimental value: 5.00

compound: COC(=O)[C@H]1[C@H]2C[C@@H]3c4[nH]c5ccccc5c4CCN3C[C@H]2C[C@@H](OC(=O)c2cc(OC)c(OC)c(OC)c2)[C@@H]1OC [Deserpidine, reference compound]
value type: pEC50
experimental value: 5.00

compound: CC(=O)c1ccc2c(c1)N(CCCN1CCC(CCO)CC1)c1ccccc1S2 [Piperacetazine, reference compound]
value type: pEC50
experimental value: 5.00

compound: CCCC[C@@H](C=O)NC(=O)[C@H](CC(C)C)NC(=O)OCc1ccccc1 [Calpeptin, reference compound]
value type: pEC50
experimental value: 6.30

compound: COc1ccc2c(c1)N(C[C@H](C)CN(C)C)c1ccccc1S2 [Methotrimeprazine maleate, reference compound]
value type: pEC50
experimental value: 5.00

compound: COC(=O)[C@H]1[C@H]2C[C@@H]3c4[nH]c5cc(OC)ccc5c4CCN3C[C@H]2C[C@@H](OC(=O)/C=C/c2ccc(O)c(OC)c2)[C@@H]1OC [Rescimetol, reference compound]
value type: pEC50
experimental value: 5.05

compound: COC(=O)[C@]1(C)CC[C@]2(C)CC[C@]3(C)C4=CC=C5C(=CC(=O)C(O)=C5C)[C@]4(C)CC[C@@]3(C)[C@@H]2C1 [Pristimerin, reference compound]
value type: pEC50
experimental value: 6.96

compound: CN1CCC(CN2c3ccccc3Sc3ccccc32)C1 (stereo not shown) [Methdilazine hydrochloride, reference compound]
value type: pEC50
experimental value: 5.00

----------
# protocol description: in vitro
# test parameters: African green monkey
Structures can show the parent of a compound that is named as a salt.
Each record here notes measured log10 CC50 at 72 h.
value type: log10 CC50 at 72 h (log10 of the value in µM)

compound: CC[C@H](CC#N)OC(=O)N[C@@H](C)c1cccc(NC(=O)Nc2ccc(-c3cnco3)c(OC)c2)c1
log10 CC50 at 72 h: 0.60
//
compound: Oc1c(I)cc(Cl)c2cccnc12
log10 CC50 at 72 h: 0.50
//
compound: Clc1ccc2c(c1)N=C(N1CCNCC1)c1ccccc1N2
log10 CC50 at 72 h: 1.00
//
compound: CC(=O)Oc1ccccc1C(=O)Nc1ncc([N+](=O)[O-])s1 [Nitazoxanide]
log10 CC50 at 72 h: 1.10
//
compound: CC(CN1c2ccccc2Sc2ccccc21)N(C)C (centres unmarked)
log10 CC50 at 72 h: 1.20
//
compound: Cn1c(NC[C@@H](N)Cc2ccccc2)nc(-c2ccncc2)c(-c2ccc3ccccc3c2)c1=O
log10 CC50 at 72 h: 1.25
//
compound: COCCN1CCN(Cc2ccc(-c3n[nH]c4c3C(=O)c3c(NC(=O)NN5CCOCC5)cccc3-4)cc2)CC1
log10 CC50 at 72 h: -0.49
//
compound: CN1CCC(=C2c3ccccc3CCc3sccc32)CC1
log10 CC50 at 72 h: 1.05
//
compound: CCNCCc1ccc(CN(CC)c2cc(OC)ccc2[C@@H]2CCc3cc(O)ccc3C2)cc1
log10 CC50 at 72 h: 1.10
//
compound: Cc1cc(C2CCCCC2)n(O)c(=O)c1
log10 CC50 at 72 h: 0.40
//
compound: Fc1ccc2[nH]ccc2c1-c1nc(N2CCOCC2)c2sc(CN3CCN(CC4CC4)CC3)cc2n1
log10 CC50 at 72 h: 0.75
//
compound: Nc1nc(Nc2ccc3c(c2)CC[C@@H](N2CCCC2)CC3)nn1-c1cc2c(nn1)-c1ccccc1CCC2
log10 CC50 at 72 h: 1.05
//
compound: CC1CCCCN1CCCOC(=O)c1ccc(OC2CCCCC2)cc1 (centres unmarked)
log10 CC50 at 72 h: 1.25
//
compound: CN(C)c1cc2c(cc1Sc1nc3c(N)nccc3n1CCNCC(C)(C)C)OCO2
log10 CC50 at 72 h: -0.15
//
compound: CCn1c(=O)c(-c2cc(NC(=O)Nc3ccccc3)c(F)cc2Br)cc2cnc(NC)cc21
log10 CC50 at 72 h: 1.05
//
compound: COc1cc(C(C)=O)ccc1OCCCN1CCC(c2noc3cc(F)ccc23)CC1
log10 CC50 at 72 h: 1.20
//
compound: CN(C)CCOC(C)(c1ccccc1)c1ccc(Cl)cc1 (centres unmarked)
log10 CC50 at 72 h: 1.05
//
compound: c1ccc(-c2cc(CCC3CCNCC3)c3ccccc3n2)cc1
log10 CC50 at 72 h: 1.10
//
compound: CN1CCN(C(c2ccccc2)c2ccc(Cl)cc2)CC1 (centres unmarked)
log10 CC50 at 72 h: 1.35
//
compound: O=C(CCCN1CCC2(CC1)C(=O)NCN2c1ccccc1)c1ccc(F)cc1
log10 CC50 at 72 h: 0.55
//
compound: CCc1ccc(N(CC(C)C)S(=O)(=O)c2ccc(OCC3CCOCC3)c(CO)c2)cc1
log10 CC50 at 72 h: 1.10
//
compound: N#Cc1ccc2[nH]cc(CCCCN3CCN(c4ccc5oc(C(N)=O)cc5c4)CC3)c2c1 [Vilazodone Hydrochloride]
log10 CC50 at 72 h: 1.30
//
compound: Cc1cn(CCN2CCN(c3ccccc3-c3cc(C#N)cc(C(=O)NCCCN4CCCC4)c3)CC2)c2ccccc12
log10 CC50 at 72 h: 1.10
//
compound: CNCc1ccc(-c2cc(-c3nc(-c4ccc(S(=O)(=O)C(C)C)cc4)cnc3N)on2)cc1 [Berzosertib, reference compound]
log10 CC50 at 72 h: 1.05
//
compound: CCN(CC)CCOc1ccc2c(c1)C(=O)c1cc(OCCN(CC)CC)ccc1-2
log10 CC50 at 72 h: 1.05
//
compound: CN1CCN(CCCN2c3ccccc3Sc3ccc(S(=O)(=O)N(C)C)cc32)CC1 [Thioproperazine dimethanesulfonate]
log10 CC50 at 72 h: 1.20

----------
Each record here notes measured CC50.
# protocol description: in vitro
# test parameters: African green monkey
Where a name gives a salt, the structure may show the parent alone.

compound: CN1CCCN(C(c2ccccc2)c2ccc(Cl)cc2)CC1 (stereo not shown) [Homochlorcyclizine]
units of measure: µM
CC50: 12.6
--
compound: CCN(CC)CCN(Cc1ccc(-c2ccc(C(F)(F)F)cc2)cc1)C(=O)Cn1c(SCc2ccc(F)cc2)nc(=O)c2c1CCC2 [Darapladib]
units of measure: µM
CC50: 11.2
--
compound: CN(C)CC/C=C1\c2ccccc2CSc2ccccc21 [Dosulepin hydrochloride]
units of measure: µM
CC50: 12.6
--
compound: COC(=O)[C@@]12OC[C@]34[C@H]([C@@H](O)[C@@H]1O)[C@@]1(C)CC(=O)C(O)=C(C)[C@@H]1C[C@H]3OC(=O)[C@H](OC(=O)/C=C(\C)C(C)C)[C@@H]24 [Bruceantin]
units of measure: µM
CC50: 0.14
